Subject Of Test: Inosine-5'-monophosphate dehydrogenase 2 (Homo sapiens, UniProt P12268)
Items are presented alongside their recorded pIC50.
Worth noting: pIC50 values are minus log10 of concentrations stated in mol/L.

Query :: Fill in: pIC50 of "Cc1cccc(-c2cnc(Nc3ccc4c(-c5cnco5)c[nH]c4c3)o2)c1" is ___
Result :: 7.11

Query :: Proceed to "CC(=O)OCC(=O)N(C)c1ccccc1-c1cnc(Nc2ccc3c(-c4cnco4)c[nH]c3c2)o1"
Result :: 8.15

Query :: Proceed to "COc1cc(NC(=O)Nc2cccc(C)c2)ccc1-c1cnco1"
Result :: 7.72

Query :: Proceed to "c1ccc(-c2cnc(Nc3ccc4c(-c5cnco5)c[nH]c4c3)o2)cc1"
Result :: 7.03

Query :: Proceed to "COc1cc(Nc2ncc(-c3ccccc3N(C)C(=O)CN3CCOCC3)o2)ccc1-c1cnco1"
Result :: 7.80

meta.source: ChEMBL document CHEMBL1134970
